# System: 695427-040-R-J1-PDC complex spheroid viability
# assay.protocol: Anticancer human tumor 695427-040-R-J1-PDC patient-derived colon adenocarcinoma cell line growth inhibition [RAS]
# experimental.setup: second compound 1 µM; first compound 0.01 µM; hits give low values
Give viability, T/C for every item shown.
Provide only the numeric value, understood in %.

Qu. Returns the measured viability, T/C for the input compound. Input: C=CC(=O)N1CCN(c2nc(OCC3CCCN3C)nc3c(F)c(-c4nc(N)cc(C)c4C(F)(F)F)c(Cl)cc23)C(C)C1 (stereo not drawn) + C#Cc1c(F)ccc2cc(O)cc(-c3ncc4c(N5CC6CCC(C5)N6)nc(OCC56CCCN5CC(F)C6)nc4c3F)c12
Ans. 78.4

Qu. Next record, please: C=CC(=O)Nc1cc(Nc2nccc(-c3cn(C)c4ccccc34)n2)c(OC)cc1N(C)CCN(C)C + C#Cc1c(F)ccc2cc(O)cc(-c3ncc4c(N5CC6CCC(C5)N6)nc(OCC56CCCN5CC(F)C6)nc4c3F)c12
Ans. 79.7

Qu. Also need O=C(c1ccc(F)c(F)c1Nc1ccc(I)cc1F)N1CC(O)([C@@H]2CCCCN2)C1 + C=CC(=O)N1CCN(c2nc(OCC3CCCN3C)nc3c(F)c(-c4nc(N)cc(C)c4C(F)(F)F)c(Cl)cc23)C(C)C1 , thanks.
Ans. 81.7

###

# Tested on: 695427-040-R-J1-PDC complex spheroid viability
# assay.protocol: Anticancer human tumor 695427-040-R-J1-PDC cell line growth inhibition [RAS];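 also: viability read after seven days of drug exposure; 100% = DMSO vehicle control viability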
# experimental.setup: second compound 0.1 µM; first compound 1 µM; hits give low values
measured.quantity: viability, T/C (%)
Quick note: give the figure in %, leave out the unit.

Qu. Recall the recorded viability, T/C for Nc1ccn(C2OC(CO)C(O)C2(F)F)c(=O)n1 (stereo unspecified) + C=CC(=O)N1CCN(c2nc(OCC3CCCN3C)nc3c(F)c(-c4nc(N)cc(C)c4C(F)(F)F)c(Cl)cc23)C(C)C1 with 695427-040-R-J1-PDC complex spheroid viability and state it.
Ans. 72.9

Qu. Item: CC(Nc1ccc2c(c1)OCCn1cc(N3C(=O)OCC3C(F)F)nc1-2)C(N)=O (stereo unspecified) + C#Cc1c(F)ccc2cc(O)cc(-c3ncc4c(N5CC6CCC(C5)N6)nc(OCC56CCCN5CC(F)C6)nc4c3F)c12
Ans. 49.9

Qu. Follow-up entry: CCC(CC)c1cc(NC2CCC(N)C2)n2nccc2n1 (stereo unspecified) + C=CC(=O)N1CCN(c2nc(OCC3CCCN3C)nc3c(F)c(-c4nc(N)cc(C)c4C(F)(F)F)c(Cl)cc23)C(C)C1
Ans. 94.4

Qu. Entry to check: CC(C)NCC(C(=O)N1CCN(c2ncnc3c2C(C)CC3O)CC1)c1ccc(Cl)cc1 (stereo unspecified) + C#Cc1c(F)ccc2cc(O)cc(-c3ncc4c(N5CC6CCC(C5)N6)nc(OCC56CCCN5CC(F)C6)nc4c3F)c12
Ans. 71

Qu. Repeat for the following molecule: NC1c2ccccc2OC12CCN(c1cnc3c(N4CCCc5ncccc54)n[nH]c3n1)CC2 (stereo unspecified) + C=CC(=O)N1CCN(c2nc(OCC3CCCN3C)nc3c(F)c(-c4nc(N)cc(C)c4C(F)(F)F)c(Cl)cc23)C(C)C1
Ans. 56.9

Qu. Next record, please: CC1(O)CCCC1n1c(=O)c(C(F)F)cc2cnc(NC3CCN(S(C)(=O)=O)CC3)nc21 (stereo unspecified) + C#Cc1c(F)ccc2cc(O)cc(-c3ncc4c(N5CC6CCC(C5)N6)nc(OCC56CCCN5CC(F)C6)nc4c3F)c12
Ans. 120

Qu. // query: CC(Nc1ccc2c(c1)OCCn1cc(N3C(=O)OCC3C(F)F)nc1-2)C(N)=O (stereo unspecified) + C=CC(=O)N1CCN(c2nc(OCC3CCCN3C)nc3c(F)c(-c4nc(N)cc(C)c4C(F)(F)F)c(Cl)cc23)C(C)C1
Ans. 50.4

Qu. // repeat for C[C@@H](NC(=O)c1ncnc(N)c1Cl)c1ncc(C(=O)Nc2cc(C(F)(F)F)c(Cl)cn2)s1 + C#Cc1c(F)ccc2cc(O)cc(-c3ncc4c(N5CC6CCC(C5)N6)nc(OCC56CCCN5CC(F)C6)nc4c3F)c12 and report
Ans. 100

Qu. What do you get for CC(=O)OC12COC1CC(O)C1(C)C(=O)C(O)C3=C(C)C(OC(=O)C(O)C(NC(=O)OC(C)(C)C)c4ccccc4)CC(O)(C(OC(=O)c4ccccc4)C21)C3(C)C (stereo unspecified) + C=CC(=O)N1CCN(c2nc(OCC3CCCN3C)nc3c(F)c(-c4nc(N)cc(C)c4C(F)(F)F)c(Cl)cc23)C(C)C1 ?
Ans. 76.2

Qu. Follow-up entry: C[C@@H](NC(=O)c1ncnc(N)c1Cl)c1ncc(C(=O)Nc2cc(C(F)(F)F)c(Cl)cn2)s1 + C=CC(=O)N1CCN(c2nc(OCC3CCCN3C)nc3c(F)c(-c4nc(N)cc(C)c4C(F)(F)F)c(Cl)cc23)C(C)C1
Ans. 101

Qu. # iterate: CCC(CC)c1cc(NC2CCC(N)C2)n2nccc2n1 (stereo unspecified) + C#Cc1c(F)ccc2cc(O)cc(-c3ncc4c(N5CC6CCC(C5)N6)nc(OCC56CCCN5CC(F)C6)nc4c3F)c12
Ans. 101
